System: MS2 coat protein
Experiment: apparent KD of MS2 coat protein; designed switch direction (-1 OFF switch, 1 ON switch): -1; higher = weaker reporter binding
Settings: input ligand: FMN 200 uM
sequences and their reported apparent KD of MS2 coat protein
Write down the value, and be sure its unit follows.

>>> experimental_value("GCGAUUUCCGAGGAUAUCCUGCACACUAUCUAAGGAGAAGGCGGAACUUGAGGAUCACCCAAGUGCAUCCGAAU [Isusbe] (Eterna round: R97, puzzle: Exclusion 6)")
"135 nM"
>>> experimental_value("GCCCGGGCAGGAUAUACAAUGAAGUUGAGAAAUCGGCUUCGACAUGAGGAUCACCCAUGUAGAAGGGCCCGGGC [-36.9, -34.6 kcal, A 28% 3] (Eterna round: R97, puzzle: Exclusion 2)")
"17.6 nM"
>>> experimental_value("GUUAGCGUAGGAUAUUAGUACAUGAACAUGAGGAUCACCCAUGUGAGGUGGGUCUUAGAUUAAGAAGGGCGAAGAA [EX5 #31] (Eterna round: R97, puzzle: Exclusion 5)")
"387 nM"
>>> experimental_value("AACUCUGAGAAGGAUAUUGUACGGGAAAUGGUACAAGAAGGUUUCACAUGAGGAUCACCCAUGUCGAAUAGUGA [EX6 #69] (Eterna round: R97, puzzle: Exclusion 6)")
"34.7 nM"
>>> experimental_value("AACAAAACGCGAGGAUAUCGCCAACAUGAGGAUCACCCAUGUCACGGGUGCAAAUGUCUUCUAGGCGAGAAGGCGCAUCCAUAC [Diatza] (Eterna round: R96, puzzle: Exclusion NG 2)")
"704 nM"
>>> experimental_value("UUUGUAUAUGAAGGAUAUACUUAACAUGAGGAUCACCCAUGUGGUGUUGUGAGUGAGUGAGUUUAGUAGAAGGUCAAUGAUUUU [JMF's solution 71] (Eterna round: R96, puzzle: Exclusion NG 2)")
"531 nM"
>>> experimental_value("CUCCGGCGUGUAGGAUAUGGUUCCGUUUCGGUUCCAGAAGGACAUGAGGAUCACCCAUGUACAUGUCGUCGGUCGUCACCGGGC [salish99_ExNG1_r04_215] (Eterna round: R96, puzzle: Exclusion NG 1)")
"120 nM"
>>> experimental_value("GCAAGCUUUUUCAAUAAGAACAUGAGGAUCACCCAUGUUUAAGGUAUUACUUUUGGGCUCUUUAGUGCUAGUCUUAU [JR_STOV1_Sub036] (Eterna round: R97, puzzle: Sensor, turn-off variant 1)")
"45.9 nM"

Request: apparent KD of MS2 coat protein lookup needed for GGUGAAGCAGGAUAUGUACCAAUAUACAUGAGGAUCACCCAUGUCAUGUAGGAACUGCGUAUAGAAGGGCUUCACC [Exclusion 5 (FMN-MS2 slide v.7)] (Eterna round: R97, puzzle: Exclusion 5) , thanks.
Result: 123 nM

====

sequences and their reported apparent KD of MS2 coat protein
System: MS2 coat protein
Assay: apparent KD of MS2 coat protein, switch ON state; designed switch direction (-1 OFF switch, 1 ON switch): 1; higher = weaker reporter binding
Details: FMN input: 0 or 200 uM; Eterna round: R93 (includes R88 designs)
Answer with a number only, understood to be in nM.

Request: GET /values?readout=apparent KD of MS2 coat protein&system=MS2 coat protein&item= GAAGACAUAGUACAGGAUAUAUGAAUAGUCACAUGAGGAUCACCCAUGUCCAUUUAUAUGGGCACAUAGAAGGGUGGUAGUUGUC [Mat - Same state - Malcolm Mod - D125]
Result: 8.69

Request: GET /values?readout=apparent KD of MS2 coat protein&system=MS2 coat protein&item= AAAAAAAAAGUGCAGGAUAUCCUCAUGGCUACAUGAGGAUCACCCAUGUGAAGAAAAGCACAUGAGGAGAAGGGCACAAAAAAAAA [Balance beam]
Result: 12.3

Request: GET /values?readout=apparent KD of MS2 coat protein&system=MS2 coat protein&item= AAAGAAAAACUAGAGGAUAUCCGAGUGGUAACAUGAGGAUCACCCAUGUGAUGAAAGGAACAUGAGGAGAAGGCUAGAAGAAAAA [JL Nando mod 8]
Result: 14.4
